assayInfo: cytotoxicity toward NIH3T3 fibroblasts, dose response, counter-screen, cell-based, ATP luminescence, mouse fibroblasts (AID 2010);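 note: cells exposed to compound for about 90 hours before reading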
Assay type: functional
Calls of active or inactive are those of the source. Cut-off read from the data, not from the text of the source: actives have a measured EC50 and inactives only a lower limit.
Each entry below lists one item and its recorded EC50 value.

| compound | obsValue |
| --- | --- |
| CC(C)c1ccccc1OCC(O)CN(CC(O)COc1cccc2ccccc12)C(C)C (stereo unspecified) | > 30 µM (not active) |
| Cc1ccc(CCNC(=O)CN=C(S)N(Cc2ccccc2)Cc2cccnc2)cc1 | > 60 µM (not active) |
| C=CCN1/C(=C/c2ccc3cc(C)ccc3[n+]2CC)C=Cc2ccccc21 | 6.53 µM (active) |
| Fc1ccc(OCCCCCn2ccnc2)cc1 | > 60 µM (not active) |
| CCc1c(-c2ccccc2)nc2sc3c(c2c1N)CCCC3 | > 60 µM (not active) |

Query :: Respond only with EC50 recorded for Cc1cccc(OCc2n(C)c3ccccc3[n+]2CC(=O)OC2CC(C)CCC2C(C)C)c1 (stereo unspecified)
Result :: > 60 µM (not active)
